# Test system: SF-539
# Assay Overview: NCI tumour cell line growth inhibition, 48 h
Calls of active or inactive are those of the source. No stated cut-off is given here; in the data, active = GI50 up to about 1.1 µM and inactive = higher. Numbered stars: 1 amine (or outer) side, 2 acyl side, 3 side chain; on linkers, the order of the positions; unused ones are H or OH. Bridge positions count the residues as written; N and C are the ends. Square brackets hold non-standard residues; d marks the D form. Peptide text beside a SMILES is read from it. I, II: the chains in the order shown. Actinocin(9to1) = Cc1c2oc3c(C)ccc(C(=O)[*:1])c3nc-2c(C(=O)[*:2])c(N)c1=O; X48 = O=C1CC(C(=O)[*:2])N([*:1])C1; NMeV = CN[CH](C(=O)O)C(C)C; Sar = CNCC(=O)O
Parameter: GI50

Example entries and their recorded answers appear below.
Compound	Parameter	Value Reported
O=C1CSC2(CC(/C=C/c3ccccc3[N+](=O)[O-])=NN2c2cccc(S(=O)(=O)O)c2)N1c1nc2ccccc2s1 (stereo unspecified)	GI50	23.5 µM (inactive)
O=C1OS2(OCc3cccc4cccc2c34)c2ccccc21 (stereo unspecified)	GI50	> 100 µM (inactive)
CCCC(Sc1ccccc1)P(=O)(c1ccccc1)c1ccccc1 (stereo unspecified)	GI50	35.1 µM (inactive)

Lookup: State the recorded GI50 for this entry: "O=C(c1ccccc1)[C@H]1Nc2ccc(Cl)cc2[C@H]2c3ccccc3O[C@H]21"
Found: 15 µM (inactive)

Lookup: State the recorded GI50 for this entry: Cc1c2oc3c(C)ccc(C(=O)NC4C(=O)NC(C(C)C)C(=O)N5CC(=O)CC5C(=O)N(C)CC(=O)N(C)C(C(C)C)C(=O)OC4C)c3nc-2c(C(=O)NC2C(=O)NC(C(C)C)C(=O)N3CC(=O)CC3C(=O)N(C)CC(=O)N(C)C(C(C)C)C(=O)OC2C)c(N)c1=O (stereo unspecified) (I: TV[X48][Sar][NMeV] / II: TV[X48][Sar][NMeV]; ester I:1-I:C, II:1-II:C; linker I:N-II:N via Actinocin(9to1); configuration not given here)
Found: > 1 µM (active)

Lookup: State the recorded GI50 for this entry: CC1=NC2(CCCCC2)N(Cl)C(=O)C1SC#N (stereo unspecified)
Found: 19.5 µM (inactive)

* * *

# Tested on: XF498
# Assay Overview: NCI tumour cell line growth inhibition, 48 h
Active and inactive are the calls of the source. No stated cut-off is given here; in the data, active = GI50 up to about 1.1 µM and inactive = higher.
Form entry, call: pick from 1.0 (active), 0.0 (inactive)

Example cases with answers are listed next.
Molecule	Assigned Label
CCCCC1(C(NC(=O)c2ccccc2Cl)c2ccncc2)C(=O)N(c2ccccc2)N(c2ccccc2)C1=O (stereo unspecified)	0.0
COc1ccc(C(c2c(O)c3ccccc3n(-c3ccccc3)c2=O)c2c(O)c3ccccc3n(-c3ccccc3)c2=O)cc1	0.0
CC(C)CS(=O)(=O)/C(=C(\c1ccc(Br)cc1)S(=O)(=O)CC(C)C)c1ccc(Br)cc1	0.0
COc1cc(CNc2nc3c(NC(C)=O)cc(C(F)(F)F)cc3nc2-c2ccccc2)cc(OC)c1OC	0.0
Cc1ccc(NC(=O)C(=O)C(C#N)c2ccccc2C)cc1C (stereo unspecified)	0.0

Lookup: Could you kindly confirm the outcome this assay logged for "O=C(/N=C(/Nc1ccccc1)SCCS/C(=N\C(=O)c1ccccc1)Nc1ccccc1)c1ccccc1" ?
Found: 0.0

Lookup: Could you kindly confirm the outcome this assay logged for N#CC(/C(CCCC(=O)Nc1cccc([N+](=O)[O-])c1)=N/NC(=O)c1cc2ccccc2cc1O)c1ccccc1 (stereo unspecified) ?
Found: 0.0

Lookup: Could you kindly confirm the outcome this assay logged for COc1c2c(c3ccccc3c1O)C1C=CC2C1 (stereo unspecified) ?
Found: 0.0

Lookup: Could you kindly confirm the outcome this assay logged for O=C1OC(CCCl)(c2ccccc2)CC1CN1CCOCC1 (stereo unspecified) ?
Found: 0.0

FYI, the data here is from ChEMBL document CHEMBL1201862.
